Here, each record is paired with measured koff data.
ASSAY_TARGET: T1, human-CD40-monomer protein (human, UniProt P25942 21-193, limits assumed)
T1 construct: Soluble monomer generated in house, used as SPR analyte; also called hCD40; hCD40-monomer
T1 sequence (P25942 21-193 limits assumed): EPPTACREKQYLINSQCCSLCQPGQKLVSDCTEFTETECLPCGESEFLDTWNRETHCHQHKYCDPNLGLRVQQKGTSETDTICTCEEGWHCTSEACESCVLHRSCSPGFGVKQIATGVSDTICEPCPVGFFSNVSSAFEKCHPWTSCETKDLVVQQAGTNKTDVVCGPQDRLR
ASSAY_COMMENT: SPR, Ab captured on protein A, 1 uM hCD40 monomer, single concentration, apparent value

BINDER: ADX_Y1267.ZZ0-1 (antibody, V domains shown, Mouse anti-human-CD40 antibody) VH: QVQLQQPGAELVKPGASVRLSCEASGYSFTSYWMHWVKQRPGQGLEWIGQINPSNGRTQYNEKFKSMATLTVDKSSSTAYIQLNSLTSEDSAVYYCARWGLQPFAYWGQGTLVTVSA VL: DIVMTQSHKFMSTSVGDRVSITCKASQDVSTAVAWYQQKPGQSPKLLIYSASYRYTGVPDRFTGSGSGTDFTFTISSVQAEDLAVYYCLQHYTTPWTFGGGTKLEIK
koff [s⁻¹]: 0.00041
--
BINDER: ADX_Y1260.ZZ0-1 (antibody, V domains shown, Mouse anti-human-CD40 antibody) VH: QVQLQQSGAELTKPGASVKMSCKASGYSFTSYWMHWVKQRPGQGLEWIGSINPSTGYTEDNQKFKDKATLTADKSSTTAYMQLSSLTSEDSAVYYCARWGLPPFAYWGQGTLVTVSA VL: DIVMTQSHKFMSTSVGDRVSITCKASQDVSTAVAWYQQKPGQSPKLLIYSASYRYTGVPDRFTGSGSGTDFTFTISSVQAEDLAVYYCQQHYSTPWTFGGGTKLEIK
koff [s⁻¹]: 0.00021
